The reported measurements were obtained from the RNAGym collection of RNA variant scans (doi:10.1093/molbev/msab373).

Exercise: for every item that follows, state its recorded reverse-splicing fitness.
B1: Azoarcus group I ribozyme (parent)
chain: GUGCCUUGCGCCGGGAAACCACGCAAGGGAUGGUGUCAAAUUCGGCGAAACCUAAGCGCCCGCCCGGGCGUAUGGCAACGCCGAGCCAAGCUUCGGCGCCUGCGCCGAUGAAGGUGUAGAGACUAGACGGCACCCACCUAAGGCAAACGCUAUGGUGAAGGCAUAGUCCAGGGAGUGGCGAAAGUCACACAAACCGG

Variants of: B1
Experiment: reverse-splicing fitness (ratio to wild type); higher = more active; in vitro selection; Mg2+ level not given

Required: reverse-splicing fitness, one value per variant below.
1. A111U A145G C150A C169A U176C
2. A111C A120C C150A C169U U176A
3. C82A A120G C150U C169A U176C
4. C82A A111C A120C A145G C169G U176C
5. C82U A111G A120G A145G C150G C169U U176C
6. A145C C150A U176A
7. C82G A120G A145U C150G U176C

Output line:
[0.0233, 0.0208, 0.0163, 0.0247, 0.0105, 0.217, 0.0103]
